Recorded values, source the supplement of paper PMC4466140.

- TEST_TARGET: ScHof1
- PROTOCOL_TEXT: SPOT peptide array binding signal intensity (averaged, normalized) (arbitrary units (background-subtracted, floor 0; scale differs between SH3 domains)); higher = stronger binding of the SH3 domain to the peptide
Reported SPOT peptide array binding signal intensity values for the following binders.
No unit in the answer, please; the number alone is enough.

Reference set (6 entries):
{"BINDER": "ALRRRLPVTRSKINW", "QUANTITATIVE_READOUT": 2.5}
{"BINDER": "VRVKKRPLIRPLNSS", "QUANTITATIVE_READOUT": 0.75}
{"BINDER": "RRASLFPRDPKRLRP", "QUANTITATIVE_READOUT": 4}
{"BINDER": "AAHKTKPSIPPKKVE", "QUANTITATIVE_READOUT": 0.5}
{"BINDER": "RKLRTVPGVPLIHLT", "QUANTITATIVE_READOUT": 1}
{"BINDER": "RRTRLRPPTPLSQLL", "QUANTITATIVE_READOUT": 4.5}

Problem: Quick one: SPOT peptide array binding signal intensity of VAPPPLPNRQLPNLD ?
Result: 39.2

Problem: For the binder shown here, NPTKSPPPPPSPSTM , give the reported SPOT peptide array binding signal intensity.
Result: 1

Problem: Please give the measured SPOT peptide array binding signal intensity for this binder: LKQRFFLMFPKSIIW
Result: 1.5

Problem: Entry under review: VKPRQLFPIPLNKVD . Reported SPOT peptide array binding signal intensity?
Result: 3.75

Problem: # query: SPOT peptide array binding signal intensity of entry RLPAPPPPPRRGPAP
Result: 175

Problem: Form field: reported SPOT peptide array binding signal intensity of FPPKRKPLLRPQRSD
Result: 0.25
